System: OCI-Ly10 cells
method description: Dose-response study of BTK inhibitor in the presence of BCL-2 inhibitor, OCI-Ly10
Type: cell-based
recorded conditions: Homo sapiens, OCI-Ly10, navitoclax 0 nM; read-out: Inhibitory activity on cell proliferation OCI-Ly10 IC50

{"smiles representation": "Cn1cc(Nc2nc(N)nc(-c3cccc(-n4ccc5cc(C6CC6)cc(F)c5c4=O)c3CO)n2)cn1", "IC50 (nM)": 59}

====

System: OCI-Ly10 cells
method description: Dose-response study of BTK inhibitor in the presence of BCL-2 inhibitor, OCI-Ly10
Type: cell-based
recorded conditions: Homo sapiens, OCI-Ly10, in the presence of venetoclax 10 nM; read-out: Inhibitory activity on cell proliferation OCI-Ly10 IC50

{"smiles representation": "Cn1cc(Nc2nc(N)nc(-c3cccc(-n4ccc5cc(C6CC6)cc(F)c5c4=O)c3CO)n2)cn1", "IC50, nM": 19}
{"smiles representation": "Nc1nc(-c2cccc(-n3ccc4cc(C5CC5)cc(F)c4c3=O)c2CO)c2cc(C3=CCN(C4COC4)CC3)[nH]c2n1", "IC50, nM": 1.3}

====

Test system: BTK-C481S-mutant OCI-Ly10 cells
method description: Cell proliferation suppression test of single agents, BTK-C481S-mutant OCI-Ly10
Type: cell-based, Human
recorded conditions: Homo sapiens, OCI-Ly10; single agent; read-out: Inhibitory activity on cell proliferation OCI-Ly10 BTK-C481S IC50
pIC50: −log10 of the molar value. Structures can show the parent of a compound that is named as a salt.
reported property: pIC50

{"molecule": "CC1(C)CCC(c2ccc(Cl)cc2)=C(CN2CCN(c3ccc(C(=O)NS(=O)(=O)c4ccc(N[C@H](CCN5CCOCC5)CSc5ccccc5)c(S(=O)(=O)C(F)(F)F)c4)cc3)CC2)C1 [navitoclax]", "reported property": "pIC50", "numeric value": 7.02}
{"molecule": "Cn1cc(Nc2nc(N)nc(-c3cccc(-n4ccc5cc(C6CC6)cc(F)c5c4=O)c3CO)n2)cn1 [Compound (II-A)]", "reported property": "pIC50", "numeric value": 6.82}
{"molecule": "COC1=CC(c2cc3ccccc3[nH]2)=N/C1=C\\c1[nH]c(C)cc1C [obatoclax mesylate]", "reported property": "pIC50", "numeric value": 6.82}
{"molecule": "CC1(C)CCC(CN2CCN(c3ccc(C(=O)NS(=O)(=O)c4ccc(NCC5CCOCC5)c([N+](=O)[O-])c4)c(Oc4cnc5[nH]ccc5c4)c3)CC2)=C(c2ccc(Cl)cc2)C1 [venetoclax]", "reported property": "pIC50", "numeric value": 7.70}
{"molecule": "Nc1nc(-c2cccc(-n3ccc4cc(C5CC5)cc(F)c4c3=O)c2CO)c2cc(C3=CCN(C4COC4)CC3)[nH]c2n1 [Compound (I-A)]", "reported property": "pIC50", "numeric value": 7.82}

====

System: OCI-Ly10 cells
method description: Dose-response study of BTK inhibitor in the presence of BCL-2 inhibitor, OCI-Ly10
Type: cell-based
recorded conditions: Homo sapiens, OCI-Ly10, venetoclax 0 nM; read-out: Inhibitory activity on cell proliferation OCI-Ly10 IC50
In this section, each of the compounds is paired with its reported IC50.
reported property: IC50 (nM)

{"compound": "Cn1cc(Nc2nc(N)nc(-c3cccc(-n4ccc5cc(C6CC6)cc(F)c5c4=O)c3CO)n2)cn1 [Compound (II-A)]", "units of measure": "nM", "numeric value": 42}
{"compound": "Nc1nc(-c2cccc(-n3ccc4cc(C5CC5)cc(F)c4c3=O)c2CO)c2cc(C3=CCN(C4COC4)CC3)[nH]c2n1 [Compound (I-A)]", "units of measure": "nM", "numeric value": 2.1}

====

Measured pIC50 values are reported for all entries that follow.
Test system: BTK-C481S-mutant OCI-Ly10 cells
method description: Dose-response study of BTK inhibitor in the presence of BCL-2 inhibitor, BTK-C481S-mutant OCI-Ly10
Format: cell-based
recorded conditions: Homo sapiens, OCI-Ly10, in the presence of S-55746 100 nM; read-out: Inhibitory activity on cell proliferation OCI-Ly10 BTK-C481S IC50
Source text: BTK-C481S-mutant OCI-Ly10 cells were produced by point mutation knock-in using the CRISPR-Cas9 system. Cas9 protein (Thermo Fisher Scientific Inc.), guide RNA prepared with GeneArt™ Precision gRNA Synthesis Kit (Thermo Fisher Scientific Inc.), and a single-stranded synthetic oligonucleotide to replace 481st cysteine residue of BTK with a serine residue were introduced into OCI-Ly10 cells by an electroporation method. […]
pIC50: −log10 of the molar value.

{"compound": "Nc1nc(-c2cccc(-n3ccc4cc(C5CC5)cc(F)c4c3=O)c2CO)c2cc(C3=CCN(C4COC4)CC3)[nH]c2n1 [Compound (I-A)]", "pIC50": 8.51}
{"compound": "Cn1cc(Nc2nc(N)nc(-c3cccc(-n4ccc5cc(C6CC6)cc(F)c5c4=O)c3CO)n2)cn1 [Compound (II-A)]", "pIC50": 7.41}

====

Test system: BTK-C481S-mutant OCI-Ly10 cells
method description: Dose-response study of BTK inhibitor in the presence of BCL-2 inhibitor, BTK-C481S-mutant OCI-Ly10
Format: cell-based
recorded conditions: Homo sapiens, OCI-Ly10, S-55746 0 nM; read-out: Inhibitory activity on cell proliferation OCI-Ly10 BTK-C481S IC50
pIC50: −log10 of the molar value.
reported property: pIC50

{"smiles representation": "Nc1nc(-c2cccc(-n3ccc4cc(C5CC5)cc(F)c4c3=O)c2CO)c2cc(C3=CCN(C4COC4)CC3)[nH]c2n1", "numeric value": 7.96}
{"smiles representation": "Cn1cc(Nc2nc(N)nc(-c3cccc(-n4ccc5cc(C6CC6)cc(F)c5c4=O)c3CO)n2)cn1", "numeric value": 6.82}

====

Test system: BTK-C481S-mutant OCI-Ly10 cells
method description: Dose-response study of BTK inhibitor in the presence of BCL-2 inhibitor, BTK-C481S-mutant OCI-Ly10
Format: cell-based
recorded conditions: Homo sapiens, OCI-Ly10, in the presence of venetoclax 10 nM; read-out: Inhibitory activity on cell proliferation OCI-Ly10 BTK-C481S IC50
pIC50: −log10 of the molar value.
Catalogue of compounds with associated pIC50
reported property: pIC50

{"smiles representation": "Cn1cc(Nc2nc(N)nc(-c3cccc(-n4ccc5cc(C6CC6)cc(F)c5c4=O)c3CO)n2)cn1", "target desc": "BTK-C481S-mutant OCI-Ly10 cells", "reported property": "pIC50", "numeric value": 7.28}
{"smiles representation": "Nc1nc(-c2cccc(-n3ccc4cc(C5CC5)cc(F)c4c3=O)c2CO)c2cc(C3=CCN(C4COC4)CC3)[nH]c2n1", "target desc": "BTK-C481S-mutant OCI-Ly10 cells", "reported property": "pIC50", "numeric value": 8.32}

====

The reader will find reported pIC50 values listed item by item below.
Test system: BTK-C481S-mutant OCI-Ly10 cells
method description: Dose-response study of BTK inhibitor in the presence of BCL-2 inhibitor, BTK-C481S-mutant OCI-Ly10
Format: cell-based
recorded conditions: Homo sapiens, OCI-Ly10, in the presence of S-55746 30 nM; read-out: Inhibitory activity on cell proliferation OCI-Ly10 BTK-C481S IC50
pIC50: −log10 of the molar value.

{"compound": "Cn1cc(Nc2nc(N)nc(-c3cccc(-n4ccc5cc(C6CC6)cc(F)c5c4=O)c3CO)n2)cn1 [Compound (II-A)]", "target desc": "BTK-C481S-mutant OCI-Ly10 cells", "pIC50": 7.16}
{"compound": "Nc1nc(-c2cccc(-n3ccc4cc(C5CC5)cc(F)c4c3=O)c2CO)c2cc(C3=CCN(C4COC4)CC3)[nH]c2n1 [Compound (I-A)]", "target desc": "BTK-C481S-mutant OCI-Ly10 cells", "pIC50": 8.28}

====

System: BTK-C481S-mutant OCI-Ly10 cells
method description: Dose-response study of BTK inhibitor in the presence of BCL-2 inhibitor, BTK-C481S-mutant OCI-Ly10
Type: cell-based
recorded conditions: Homo sapiens, OCI-Ly10, in the presence of navitoclax 10 nM; read-out: Inhibitory activity on cell proliferation OCI-Ly10 BTK-C481S IC50
Catalogue of compounds with associated IC50
reported property: IC50 (nM)

{"smiles representation": "Nc1nc(-c2cccc(-n3ccc4cc(C5CC5)cc(F)c4c3=O)c2CO)c2cc(C3=CCN(C4COC4)CC3)[nH]c2n1", "reported property": "IC50", "numeric value": 12}
{"smiles representation": "Cn1cc(Nc2nc(N)nc(-c3cccc(-n4ccc5cc(C6CC6)cc(F)c5c4=O)c3CO)n2)cn1", "reported property": "IC50", "numeric value": 260}

====

System: U2932 cells
method description: Dose-response study of BTK inhibitor in the presence of BCL-2 inhibitor, U2932
Format: cell-based
recorded conditions: Homo sapiens, U2932, in the presence of navitoclax 100 nM; read-out: Inhibitory activity on cell proliferation U2932 IC50

{"smiles representation": "Cn1cc(Nc2nc(N)nc(-c3cccc(-n4ccc5cc(C6CC6)cc(F)c5c4=O)c3CO)n2)cn1", "IC50": "1360 nM"}
{"smiles representation": "Nc1nc(-c2cccc(-n3ccc4cc(C5CC5)cc(F)c4c3=O)c2CO)c2cc(C3=CCN(C4COC4)CC3)[nH]c2n1", "IC50": "1950 nM"}
